Target: T1, sIL-6R (soluble IL-6 receptor; SBH Sciences) (human, UniProt P08887 20-365)
T1 construct: also called human IL-6R
T1 sequence: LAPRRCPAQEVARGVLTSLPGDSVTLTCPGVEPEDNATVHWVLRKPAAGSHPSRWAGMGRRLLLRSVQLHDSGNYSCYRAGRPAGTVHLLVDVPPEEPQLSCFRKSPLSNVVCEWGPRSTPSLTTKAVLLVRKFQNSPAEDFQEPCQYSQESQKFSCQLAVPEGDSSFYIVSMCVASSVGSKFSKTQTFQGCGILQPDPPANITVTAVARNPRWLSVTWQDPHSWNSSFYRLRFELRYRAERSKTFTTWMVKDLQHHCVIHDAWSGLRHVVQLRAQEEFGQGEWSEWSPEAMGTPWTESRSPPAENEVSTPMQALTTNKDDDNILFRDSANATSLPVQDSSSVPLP
Experiment: SPR (BIAcore 3000), antibody on chip, sIL-6R analyte, 25 C
Quantity kind: Relative Affinity

3# (antibody, human IgG1, kappa, V domains shown, also called Sample # 3) VH: QVQLQESGPGLVRPSQTLSLTCTVSGYSITSDHAWSWVRQPPGRGLEWIGYISYSGITTYNPSLKSRVTMLRDTSKNQFSLRLSSVTAADTAVYYCARSLARATAMDYWGQGSLVTVSS VL: DIQMTQSPSSLSASVGDRVTITCRASQDISSYLNWYQQKPGKAPKLLIYYTSRLHSGVPSRFSGSGSGTDFTFTISSLQPEDIATYYCQQGNTLPYTFGQGTKVEIKR: 4.9 fold vs 25 (Tocilizumab)
13# (antibody, human IgG1, kappa, V domains shown, also called Sample # 13) VH: QVQLQESGPGLVRPSQTLSLTCTVSGYSITSDHAWSWVRQPPGRGLEWIGFISYSGITTYNPSLKSRVTMLRDTSKNQFSLRLSSVTAADTAVYYCARCLARTTAMDYWGQGSLVTVSS VL: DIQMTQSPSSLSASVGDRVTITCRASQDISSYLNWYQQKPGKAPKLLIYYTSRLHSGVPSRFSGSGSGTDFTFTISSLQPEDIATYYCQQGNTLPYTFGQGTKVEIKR: 3.6 fold vs 25 (Tocilizumab)
18# (antibody, human IgG1, kappa, V domains shown, also called Sample # 18) VH: QVQLQESGPGLVRPSQTLSLTCTVSGYSITSDHAWSWVRQPPGRGLEWIGFISYSGITTYNPSLKSRVTMLRDTSKNQFSLRLSSVTAADTAVYYCARCLARITAMDYWGQGSLVTVSS VL: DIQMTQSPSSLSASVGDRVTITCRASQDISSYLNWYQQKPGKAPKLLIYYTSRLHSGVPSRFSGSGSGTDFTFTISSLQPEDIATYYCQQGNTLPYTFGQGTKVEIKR: 9.5 fold vs 25 (Tocilizumab)
30# (antibody, human IgG1, kappa, V domains shown, also called Sample # 30) VH: QVQLQESGPGLVRPSQTLSLTCTVSGYSITSDHAWSWVRQPPGRGLEWIGFISYSGMTTYNPSLKSRVTMLRDTSKNQFSLRLSSVTAADTAVYYCARCLARTTAMDYWGQGSLVTVSS VL: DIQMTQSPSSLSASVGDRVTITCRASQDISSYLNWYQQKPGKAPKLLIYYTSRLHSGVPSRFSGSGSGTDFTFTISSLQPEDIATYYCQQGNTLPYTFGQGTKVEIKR: 5.7 fold vs 25 (Tocilizumab)

Alright, here's another binder for you.
Looking up 12# (antibody, human IgG1, kappa, V domains shown, also called Sample # 12) VH: QVQLQESGPGLVRPSQTLSLTCTVSGYSITSDHAWSWVRQPPGRGLEWIGFISYSGITTYNPSLKSRVTMLRDTSKNQFSLRLSSVTAADTAVYYCARCLARATAMDYWGQGSLVTVSS VL: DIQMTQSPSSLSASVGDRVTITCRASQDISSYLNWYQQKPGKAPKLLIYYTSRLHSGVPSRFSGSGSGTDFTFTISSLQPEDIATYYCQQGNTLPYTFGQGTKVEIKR , I see its Relative Affinity listed as 4.6 fold vs 25 (Tocilizumab)
